Data provenance is paper PMC12416549.

- ASSAY SYSTEM: T1, TNFR1 (Homo sapiens, UniProt P19438)
- T1 chain: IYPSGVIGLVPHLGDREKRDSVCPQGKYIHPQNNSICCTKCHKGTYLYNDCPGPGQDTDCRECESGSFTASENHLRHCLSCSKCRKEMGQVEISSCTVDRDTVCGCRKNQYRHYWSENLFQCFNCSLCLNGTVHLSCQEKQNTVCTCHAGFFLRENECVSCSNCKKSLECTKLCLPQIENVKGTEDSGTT
- PROCEDURE SUMMARY: yeast display SC50
MEASUREMENT KIND: apparent Kd (screen) (nM)

[P] P79K (designed binder) MTLQELLREEALRRAEAEAFRYALELLAEKFPEQKEYLLDLAEEIESQIRSLSGVDVEDVRKFLDKEWAWVKELLAEHKAELAEVEAARAARLAELRAEVEAKVAA
[Q] Y37L (designed binder) MTLQELLREEALRRAEAEAFRYALELLAEKFPEQKELLLDLAEEIESQIRSLSGVDVEDVRKFLDKEWAWVKELLAEHPAELAEVEAARAARLAELRAEVEAKVAA
[R] L75G (designed binder) MTLQELLREEALRRAEAEAFRYALELLAEKFPEQKEYLLDLAEEIESQIRSLSGVDVEDVRKFLDKEWAWVKELGAEHPAELAEVEAARAARLAELRAEVEAKVAA
[S] Y37C (designed binder) MTLQELLREEALRRAEAEAFRYALELLAEKFPEQKECLLDLAEEIESQIRSLSGVDVEDVRKFLDKEWAWVKELLAEHPAELAEVEAARAARLAELRAEVEAKVAA
# rank by apparent Kd (screen), ascending (min first) In plain terms: list the labels in the order you were asked to. P, R, S, Q

[1] E18V (designed binder) MTLQELLREEALRRAEAVAFRYALELLAEKFPEQKEYLLDLAEEIESQIRSLSGVDVEDVRKFLDKEWAWVKELLAEHPAELAEVEAARAARLAELRAEVEAKVAA
[2] E67W (designed binder) MTLQELLREEALRRAEAEAFRYALELLAEKFPEQKEYLLDLAEEIESQIRSLSGVDVEDVRKFLDKWWAWVKELLAEHPAELAEVEAARAARLAELRAEVEAKVAA
[3] A83L (designed binder) MTLQELLREEALRRAEAEAFRYALELLAEKFPEQKEYLLDLAEEIESQIRSLSGVDVEDVRKFLDKEWAWVKELLAEHPAELLEVEAARAARLAELRAEVEAKVAA
Descending sort on apparent Kd (screen) required. Give me the labels in the order the question wants. 2, 1, 3
